target: JAK2 (Homo sapiens, UniProt O60674); construct: host or cells: baculovirus expression system; experiment: Recombinant Human JAK2 Kinase Assay (TRF); type: biochemical; conditions: JAK2 kinase inhibition, 0.2 μM ATP; read-out: JAK2 Potency
Sequence (O60674 whole entry): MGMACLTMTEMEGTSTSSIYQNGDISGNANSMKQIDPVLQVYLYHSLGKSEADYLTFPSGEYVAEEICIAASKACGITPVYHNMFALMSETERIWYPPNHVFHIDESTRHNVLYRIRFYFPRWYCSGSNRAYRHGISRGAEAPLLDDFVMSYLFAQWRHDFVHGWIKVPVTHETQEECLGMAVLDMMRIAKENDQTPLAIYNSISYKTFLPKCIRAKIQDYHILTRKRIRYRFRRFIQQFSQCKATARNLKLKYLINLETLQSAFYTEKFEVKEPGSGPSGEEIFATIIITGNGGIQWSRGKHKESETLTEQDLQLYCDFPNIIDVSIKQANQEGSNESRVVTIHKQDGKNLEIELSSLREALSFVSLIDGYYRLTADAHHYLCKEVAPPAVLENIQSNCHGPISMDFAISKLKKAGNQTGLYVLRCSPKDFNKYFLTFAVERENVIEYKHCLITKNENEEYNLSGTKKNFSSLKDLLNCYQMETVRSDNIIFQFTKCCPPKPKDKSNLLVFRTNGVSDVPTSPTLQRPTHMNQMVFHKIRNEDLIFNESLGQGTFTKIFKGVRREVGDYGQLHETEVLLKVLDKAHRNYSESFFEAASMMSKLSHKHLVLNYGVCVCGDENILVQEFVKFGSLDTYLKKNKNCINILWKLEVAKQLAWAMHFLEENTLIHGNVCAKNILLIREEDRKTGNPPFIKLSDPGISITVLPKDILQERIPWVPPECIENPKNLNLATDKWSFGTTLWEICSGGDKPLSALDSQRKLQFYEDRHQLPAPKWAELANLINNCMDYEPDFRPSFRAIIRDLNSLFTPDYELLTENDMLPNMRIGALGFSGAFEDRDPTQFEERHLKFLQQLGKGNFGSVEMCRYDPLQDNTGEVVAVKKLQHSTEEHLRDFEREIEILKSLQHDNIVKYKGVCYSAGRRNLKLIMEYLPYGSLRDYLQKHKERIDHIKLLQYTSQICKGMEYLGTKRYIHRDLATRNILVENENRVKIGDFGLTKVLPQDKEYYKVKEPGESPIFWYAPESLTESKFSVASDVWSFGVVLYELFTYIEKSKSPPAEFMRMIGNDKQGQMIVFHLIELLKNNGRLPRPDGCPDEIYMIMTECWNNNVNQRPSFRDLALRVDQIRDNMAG
metric.name: IC50

• COc1cc(N2CCC(N3CCCN(C)CC3)CC2)ccc1Nc1ncc2ccc(-c3ccccc3OC)n2n1 = < 100 nM
• CC(=O)Nc1cccc(Nc2ncc3ccc(-c4cccn4CCC#N)n3n2)c1 = < 100 nM
• COc1ccccc1-c1ccc2cnc(Nc3ccc(Cl)c(OCC4CCCN4C)c3)nn12 (stereo not shown) = < 100 nM
• COc1cc(N2CCN(C[C@@H](O)CO)CC2)ccc1Nc1ncc2ccc(-c3cc(Cl)ccc3OC)n2n1 = 100 to 1000 nM
• COc1ccc(-c2ccc3cnc(Nc4ccc5c(c4)NC(=O)CC5)nn23)cn1 = < 100 nM
• CS(=O)(=O)c1ccc(-c2ccc3cnc(Nc4ccc5c(c4)CCC(N4CCOCC4)CC5)nn23)cc1 (stereo not shown) = < 100 nM
• CN1CCN(c2ccc(Nc3ncc4ccc(-c5ccc(CNCCS(C)(=O)=O)o5)n4n3)cc2)CC1 = < 100 nM
• COc1cc(C2CCN(C)CC2)ccc1Nc1ncc2ccc(-c3cccc4c3OCC4)n2n1 = 100 to 1000 nM
• CC(=O)N1CCc2ccc(Nc3ncc4ccc(-c5cccc(C(=O)NC(C)(C)C)c5)n4n3)cc21 = 100 to 1000 nM
• COc1cc2c(cc1Nc1ncc3ccc(-c4ccccc4N(C)S(C)(=O)=O)n3n1)CN(C(=O)OC(C)(C)C)C2 = > 10000 nM
• COc1cc2c(cc1Nc1ncc3ccc(-c4cccc5c4OCC5)n3n1)CCNCC2 = < 100 nM
• CN1CCN(C(=O)c2cccc(Nc3ncc4ccc(-c5cccc(S(=O)(=O)NC(C)(C)C)c5)n4n3)c2)CC1 = < 100 nM
• c1cncc(-c2ccc3cnc(Nc4cnn(CCN5CCOCC5)c4)nn23)c1 = < 100 nM
• COc1ccc(-c2ccc3cnc(Nc4ccc(-c5csnn5)cc4)nn23)cn1 = < 100 nM
• COc1cc(Cn2ccnc2C)ccc1Nc1ncc2ccc(-c3ccccc3OC)n2n1 = 100 to 1000 nM
• COc1cc(C2CCN(C(C)C(N)=O)CC2)ccc1Nc1ncc2ccc(-c3ccccc3OC)n2n1 (stereo not shown) = 100 to 1000 nM

###

Collected pIC50 values appear next to each entry.
molecular target: ALK (Homo sapiens); construct: host or cells: baculovirus expression system; experiment: ALK Kinase Assay (ELISA/TRF, PLC-γ substrate); assay type: biochemical; conditions: ALK Kinase Inhibition; read-out: ALK Potency
pIC50: −log10 of the molar value.
metric.name: pIC50

• COc1ccccc1-c1ccc2cnc(Nc3ccc(CN4CCCC4)cc3)nn12 [Example 1430] = > 7.00
• COCc1cccc(-c2ccc3cnc(Nc4ccc(N5CCN(C)CC5)cc4)nn23)c1 [Example 1503] = 6.00 to 7.00
• COc1ncccc1-c1ccc2cnc(Nc3ccc(N4CCOCC4)cc3)nn12 [Example 16] = 6.00 to 7.00
• COc1cc(N2CCCC(N3CCN(C(=O)OCc4ccccc4)CC3)C2)ccc1Nc1ncc2ccc(-c3ccccc3OC)n2n1 (stereo not shown) [Example 234] = 6.00 to 7.00
• COc1ccc(Cl)cc1-c1ccc2cnc(Nc3cccc(N4CCC(N5CCOCC5)CC4)c3)nn12 [Example 196] = > 7.00
• c1cncc(-c2ccc3cnc(Nc4cccc(N5CCOCC5)c4)nn23)c1 [Example 309] = 5.00 to 6.00
• CN1CCN(C(=O)C2CCCN(c3ccc(Nc4ncc5ccc(-c6ccc(S(C)(=O)=O)cc6)n5n4)cc3)C2)CC1 (stereo not shown) [Example 446] = 5.00 to 6.00
• C[C@H](O)CN1CCN(c2ccc(Nc3ncc4ccc(-c5ccccc5NS(C)(=O)=O)n4n3)cc2)CC1 [Example 430] = 6.00 to 7.00
• CN1CCN(c2ccc(Nc3ncc4ccc(-c5ccccc5NC(=O)C(C)(C)C)n4n3)cc2)CC1 [Example 403] = < 5.00
• CS(=O)(=O)Nc1cccc(-c2ccc3cnc(Nc4cccc(N5CCOCC5)c4)nn23)c1 [Example 183] = 6.00 to 7.00
• CN1CCN(c2cccc(Nc3ncc4ccc(-c5cccc6c5OC(F)(F)O6)n4n3)c2)CC1 [Example 1534] = 6.00 to 7.00
• COc1ccc(-c2ccc3cnc(Nc4ccc(N5CCN(CC(N)=O)CC5)c(F)c4)nn23)cn1 [Example 1414] = 5.00 to 6.00
• COc1ccccc1-c1ccc2cnc(Nc3ccc(N4CCCC(C(=O)N5CCN(C)CC5)C4)cc3)nn12 (stereo not shown) [Example 443] = > 7.00
• CCN(CC)C(=O)c1ccccc1-c1ccc2cnc(Nc3ccc(N4CCN(C)CC4)cc3)nn12 [Example 407] = 6.00 to 7.00
• Clc1cccc(-c2ccc3cnc(Nc4ccc(N5CCCC5)cc4)nn23)c1 [Example 167] = 5.00 to 6.00
• CC(C)(C)OCc1cccc(-c2ccc3cnc(Nc4cccc(N5CCOCC5)c4)nn23)c1 [Example 1560] = < 5.00

###

Molecular target: ALK (Homo sapiens, UniProt Q9UM73)
Construct: host or cells: baculovirus expression system
Sequence (Q9UM73 19-1620): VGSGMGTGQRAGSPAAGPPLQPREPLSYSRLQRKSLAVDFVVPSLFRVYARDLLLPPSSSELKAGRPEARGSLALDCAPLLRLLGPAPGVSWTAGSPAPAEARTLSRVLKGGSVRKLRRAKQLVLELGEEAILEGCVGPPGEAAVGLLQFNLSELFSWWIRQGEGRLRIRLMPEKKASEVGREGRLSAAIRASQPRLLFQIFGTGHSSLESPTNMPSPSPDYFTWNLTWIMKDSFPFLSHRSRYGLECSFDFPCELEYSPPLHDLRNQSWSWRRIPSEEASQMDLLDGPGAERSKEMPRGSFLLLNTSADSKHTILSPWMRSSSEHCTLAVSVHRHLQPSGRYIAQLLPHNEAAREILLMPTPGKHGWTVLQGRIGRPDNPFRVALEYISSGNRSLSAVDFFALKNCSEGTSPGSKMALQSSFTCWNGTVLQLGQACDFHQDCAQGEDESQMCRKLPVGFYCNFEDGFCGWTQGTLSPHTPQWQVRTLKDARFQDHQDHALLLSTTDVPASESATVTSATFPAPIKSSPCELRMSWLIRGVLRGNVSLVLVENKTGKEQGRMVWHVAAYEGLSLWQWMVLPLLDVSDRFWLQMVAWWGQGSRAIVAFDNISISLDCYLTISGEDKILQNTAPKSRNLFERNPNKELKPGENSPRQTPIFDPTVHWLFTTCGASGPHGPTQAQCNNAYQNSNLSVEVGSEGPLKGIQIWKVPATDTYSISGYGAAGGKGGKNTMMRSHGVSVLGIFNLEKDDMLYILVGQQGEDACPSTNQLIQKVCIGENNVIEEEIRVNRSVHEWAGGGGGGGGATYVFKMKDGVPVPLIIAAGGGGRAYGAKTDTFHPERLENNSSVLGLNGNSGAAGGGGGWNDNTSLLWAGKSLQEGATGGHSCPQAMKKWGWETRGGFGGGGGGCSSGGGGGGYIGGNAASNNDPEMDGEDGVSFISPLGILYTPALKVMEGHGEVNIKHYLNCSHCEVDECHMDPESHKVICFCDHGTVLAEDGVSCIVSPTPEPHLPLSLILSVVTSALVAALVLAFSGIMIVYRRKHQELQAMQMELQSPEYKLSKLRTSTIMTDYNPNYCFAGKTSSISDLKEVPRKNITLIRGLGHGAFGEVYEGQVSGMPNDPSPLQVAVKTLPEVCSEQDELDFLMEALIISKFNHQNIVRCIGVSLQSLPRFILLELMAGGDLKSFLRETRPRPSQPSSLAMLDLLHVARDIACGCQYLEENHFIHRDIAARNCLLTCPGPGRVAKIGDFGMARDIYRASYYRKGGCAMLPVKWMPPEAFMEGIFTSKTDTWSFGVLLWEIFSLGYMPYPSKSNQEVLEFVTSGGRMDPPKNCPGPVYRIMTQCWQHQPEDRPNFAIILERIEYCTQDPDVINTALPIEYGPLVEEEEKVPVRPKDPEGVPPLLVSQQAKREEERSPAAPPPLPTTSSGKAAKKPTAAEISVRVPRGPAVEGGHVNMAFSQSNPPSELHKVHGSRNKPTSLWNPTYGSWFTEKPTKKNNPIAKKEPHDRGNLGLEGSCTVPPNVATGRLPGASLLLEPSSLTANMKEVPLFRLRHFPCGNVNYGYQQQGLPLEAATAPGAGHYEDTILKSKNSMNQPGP
Test: ALK Kinase Assay (ELISA/TRF, PLC-γ substrate)
Assay type: biochemical
Details: ALK Kinase Inhibition; read-out: ALK Potency
Experimental: Briefly, each 96-well plate was coated with […] of 10 μg/mL substrate (phospholipase C-γ) in Tris-buffered saline (TBS). […] The reaction was initiated by adding enzyme (30 ng/ml ALK) and was allowed to proceed at 37° C. for 15 minutes. Detection of the phosphorylated product was performed by adding 100 μl/well of Eu—N1 labeled PT66 antibody (Perkin Elmer # AD0041). Data analysis was performed using ActivityBase (IDBS, Guilford, UK). […]
pIC50: −log10 of the molar value.
Collected pIC50 values appear next to each entry.
metric.name: pIC50

- O=C(NCCCN1CCCC1)c1ccc(-c2ccc3cnc(Nc4ccc(N5CCOCC5)cc4)nn23)cc1: 6.00 to 7.00
- COc1cc(N2CCC(N3CCC(F)(F)CC3)CC2)ccc1Nc1ncc2ccc(-c3ccccc3N(C)S(C)(=O)=O)n2n1: > 7.00
- COc1cc(N2CCCC(N3CCN(S(C)(=O)=O)CC3)C2)ccc1Nc1ncc2ccc(-c3ccccc3OC)n2n1 (stereo not shown): > 7.00
- COc1ccccc1-c1ccc2cnc(Nc3cccc(C(=O)N4CCOCC4)c3)nn12: 5.00 to 6.00
- CC(C)(C)OC(=O)c1ccc(-c2ccc3cnc(Nc4ccc(N5CCOCC5)cc4)nn23)cc1: < 5.00
- COc1ccccc1-c1ccc2cnc(C(N)=O)nn12: < 5.00
- COc1ccc(-c2ccc3cnc(Nc4ccc(F)c(N5CCOCC5)c4)nn23)cn1: 5.00 to 6.00
- COc1cc(N2CCC(N3CCOCC3)CC2)ccc1Nc1ncc2ccc(-c3ccccc3Cl)n2n1: > 7.00
- COCCOc1ncc2ccc(-c3cccc(Cl)c3)n2n1: < 5.00
- CN1CCN(c2ccc(Nc3ncc4ccc(-c5cccc(NS(C)(=O)=O)c5)n4n3)cc2)CC1: 6.00 to 7.00
- Cc1cc2[nH]c(=O)oc2cc1Nc1ncc2ccc(-c3ccccc3N(C)S(C)(=O)=O)n2n1: 6.00 to 7.00
- CN1CCN(c2ccc(Nc3ncc4ccc(-c5cccc(S(C)(=O)=O)c5)n4n3)cc2)CC1: 6.00 to 7.00
- NC(=O)CN1CCC(c2ccc(Nc3ncc4ccc(-c5cccc(N6CCCS6(=O)=O)c5)n4n3)cc2)CC1: 6.00 to 7.00
- CC(=O)Nc1cccc(Nc2ncc3ccc(-c4cccc(COC(C)(C)C)c4)n3n2)c1: 5.00 to 6.00
- C[C@@H](O)CN1CCN(c2ccc(Nc3ncc4ccc(-c5cccc(Cl)c5)n4n3)cc2)CC1: 6.00 to 7.00
- COc1ccc(Cl)cc1-c1ccc2cnc(Nc3ccc(N4CCC(N5CCOCC5)CC4)cc3)nn12: 6.00 to 7.00

###

molecular target: ALK (Homo sapiens, UniProt Q9UM73); construct: host or cells: baculovirus expression system; assay: ALK Kinase Assay (ELISA/TRF, PLC-γ substrate); format: biochemical; details: ALK kinase inhibition, 1 μM ATP; read-out: ALK Potency
pIC50: −log10 of the molar value.
Collected pIC50 values appear next to each entry.
metric.name: pIC50

* CN1CCN(c2ccc(Nc3ncc4ccc(-c5cccc(S(=O)(=O)NC(C)(C)C)c5)n4n3)cn2)CC1 | 6.00 to 7.00
* COc1ccc(-c2ccc3cnc(Nc4ccc(C5CN(CC(N)=O)C5)cc4)nn23)cn1 | 6.00 to 7.00
* COc1cc2c(cc1Nc1ncc3ccc(-c4cccc(S(=O)(=O)NC5CC5)c4)n3n1)CCN(CC(N)=O)CC2 | > 7.00
* COc1cc(CN2C[C@@H](O)[C@H](O)C2)ccc1Nc1ncc2ccc(-c3ccccc3N(C)S(C)(=O)=O)n2n1 | > 7.00
* CN1CCN(C)C(c2cccc(Nc3ncc4ccc(-c5cccc(S(C)(=O)=O)c5)n4n3)c2)C1=O (stereo not drawn) | 5.00 to 6.00
* CN(c1ccccc1-c1ccc2cnc(Nc3ccc(N4CCOCC4)cn3)nn12)S(C)(=O)=O | 5.00 to 6.00
* CN1CCN(C(=O)C2CCN(c3ccc(Nc4ncc5ccc(-c6ccc(Cl)cc6O)n5n4)cc3)CC2)CC1 | 6.00 to 7.00
* CN(c1ccccc1-c1ccc2cnc(Nc3ccc(N4CCOCC4)cc3)nn12)S(C)(=O)=O | 6.00 to 7.00
* Cc1cc(Nc2ncc3ccc(-c4ccccc4N(C)S(C)(=O)=O)n3n2)cc2oc(=O)[nH]c12 | 6.00 to 7.00
* CC(C)(C)NS(=O)(=O)c1cccc(-c2ccc3cnc(Nc4ccc(C5CCN(C(=O)OC(C)(C)C)CC5)cc4)nn23)c1 | < 5.00
* COc1cc(C2CCN(CC(N)=O)CC2)ccc1Nc1ncc2ccc(-c3ccccc3N(C)S(C)(=O)=O)n2n1 | > 7.00
* COc1cc(C2CCN(CC(N)=O)CC2)ccc1Nc1ncc2c(O)cc(-c3ccccc3N(C)S(C)(=O)=O)n2n1 | > 7.00
* Cc1cc(Nc2ncc3ccc(-c4ccc(S(C)(=O)=O)cc4)n3n2)ccc1C1CCN(CC(N)=O)CC1 | > 7.00
* COc1ccc(-c2ccc3cnc(Nc4ccc(CN5CCN(C)CC5)cc4)nn23)cn1 | 6.00 to 7.00
* COc1ccccc1-c1ccc2cnc(Nc3ccc4c(c3)CN(CC(N)=O)C4)nn12 | 6.00 to 7.00
